- TEST_TARGET: CDK9/Cyclin K (Homo sapiens, UniProt P50750)
- Sequence (P50750 whole entry): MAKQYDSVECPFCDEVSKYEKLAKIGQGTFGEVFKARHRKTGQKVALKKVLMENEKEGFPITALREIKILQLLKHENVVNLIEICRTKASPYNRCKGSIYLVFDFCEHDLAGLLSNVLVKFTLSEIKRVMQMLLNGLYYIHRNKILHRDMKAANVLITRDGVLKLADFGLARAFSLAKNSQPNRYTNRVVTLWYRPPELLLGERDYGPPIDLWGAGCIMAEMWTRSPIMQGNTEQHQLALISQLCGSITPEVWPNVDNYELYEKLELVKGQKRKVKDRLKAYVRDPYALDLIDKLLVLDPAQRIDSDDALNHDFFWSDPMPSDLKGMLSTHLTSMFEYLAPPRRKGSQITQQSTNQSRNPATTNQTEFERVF
- Sequence (O75909 whole entry partner): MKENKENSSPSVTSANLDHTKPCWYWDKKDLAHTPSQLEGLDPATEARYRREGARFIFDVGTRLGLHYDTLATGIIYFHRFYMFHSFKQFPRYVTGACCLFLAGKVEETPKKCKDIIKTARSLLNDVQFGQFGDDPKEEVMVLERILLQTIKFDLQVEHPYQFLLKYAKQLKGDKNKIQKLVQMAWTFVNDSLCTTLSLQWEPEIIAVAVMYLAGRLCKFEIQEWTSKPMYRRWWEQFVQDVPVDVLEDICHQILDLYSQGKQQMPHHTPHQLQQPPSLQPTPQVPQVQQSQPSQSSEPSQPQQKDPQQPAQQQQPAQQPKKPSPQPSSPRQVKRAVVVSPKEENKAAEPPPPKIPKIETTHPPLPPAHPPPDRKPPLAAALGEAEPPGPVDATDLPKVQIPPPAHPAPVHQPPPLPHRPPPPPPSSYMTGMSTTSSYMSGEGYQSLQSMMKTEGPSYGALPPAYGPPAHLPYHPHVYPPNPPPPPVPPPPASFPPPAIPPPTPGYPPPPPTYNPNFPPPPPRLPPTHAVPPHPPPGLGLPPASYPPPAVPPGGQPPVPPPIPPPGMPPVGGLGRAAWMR
- ASSAY_EXPLANATION: NanoBRET live-cell target engagement, NanoLuc-CDK9/Cyclin K in HEK-293
- Type: binding
- CONDITION_NOTES: 10µM; average of experiments; read-out: CDK9/K Inhibition at 10µM (%)
Decision: inhibition at 10 µM >= 80% yields rule met, all other cases yield rule not met.

>>> category("CC(C)[C@H](CO)Nc1nc(Nc2ccc(C(=O)O)c(Cl)c2)c2ncn(C(C)C)c2n1 [Purvalanol B]")
"rule not met"
>>> category("CC(C)CC(=O)Nc1[nH]nc2c1CN(C(=O)C1CCN(C)CC1)C2(C)C [PHA-793887]")
"rule met"
>>> category("CN(C)C(=O)c1cc2cnc(Nc3ccc(N4CCNCC4)cn3)nc2n1C1CCCC1 [Ribociclib]")
"rule not met"
>>> category("CN1CCN(c2ccc(Nc3ncc4cc5n(c4n3)C3(CCCCC3)CNC5=O)nc2)CC1 [Trilaciclib]")
"rule not met"
>>> category("COCCN1CCN(Cc2ccc(-c3n[nH]c4c3C(=O)c3c(NC(=O)NN5CCOCC5)cccc3-4)cc2)CC1 [RGB286638]")
"rule met"
>>> category("CN1C/C=C/CCOc2cccc(c2)-c2ccnc(n2)Nc2cccc(c2)C1 [SB1317]")
"rule met"

----------
- TEST_TARGET: CDK9/Cyclin K (Homo sapiens, UniProt P50750)
- ASSAY_EXPLANATION: NanoBRET live-cell target engagement, NanoLuc-CDK9/Cyclin K in HEK-293
- Assay type: binding
- CONDITION_NOTES: CDK9/K; experiment 1; read-out: Inhibition at 10µM (%)
Decision: inhibition at 10 µM >= 80% yields true, all other cases yield false.

>>> category("CN1CCN(c2ccc(Nc3ncc4cc(C#N)c(=O)n(C5CCCC5)c4n3)cc2)CC1")
"false"
>>> category("COc1ccc(F)cc1-c1cc(NC(=O)C2CCCNC2)ncc1Cl (centres unmarked)")
"true"
>>> category("Cn1cc(-c2ccc(-c3cncc(Cl)c3N3CCC4(CCNC4=O)CC3)cc2)cn1")
"false"
>>> category("CN1CC[C@H](c2c(O)cc(O)c3c(=O)cc(-c4ccccc4Cl)oc23)[C@H](O)C1")
"true"
>>> category("CN1CCN(Cc2ccc(NC(=O)Nc3ccc(Oc4ccnc(N)n4)cc3)cc2C(F)(F)F)CC1")
"true"
>>> category("N#CCNC(=O)c1ccc(-c2ccnc(Nc3ccc(N4CCOCC4)cc3)n2)cc1")
"false"
>>> category("CC(C)c1cnn2c(NCc3ccccc3)cc(NC[C@H]3CCNC[C@@H]3O)nc12")
"true"
>>> category("CC(C)N1CCN(c2ccc(Nc3ncc4cc5n(c4n3)C3(CCCCC3)CNC5=O)nc2)CC1")
"false"
>>> category("COC1CN(C(=O)c2ccc3c(N)ncc(-c4ccc(-c5cnn(C)c5)cc4)c3n2)C1")
"false"
>>> category("COc1ccccc1-c1cc(Nc2cccc(CS(N)(=O)=O)c2)ncn1")
"true"
>>> category("CNC(=O)c1nn(C)c2c1C(C)(C)Cc1cnc(Nc3ccc(N4CCN(C)CC4)cc3)nc1-2")
"false"

----------
- TEST_TARGET: CDK12/Cyclin K (Homo sapiens)
- Sequence (Q9NYV4 1-1481 isoform Q9NYV4-2): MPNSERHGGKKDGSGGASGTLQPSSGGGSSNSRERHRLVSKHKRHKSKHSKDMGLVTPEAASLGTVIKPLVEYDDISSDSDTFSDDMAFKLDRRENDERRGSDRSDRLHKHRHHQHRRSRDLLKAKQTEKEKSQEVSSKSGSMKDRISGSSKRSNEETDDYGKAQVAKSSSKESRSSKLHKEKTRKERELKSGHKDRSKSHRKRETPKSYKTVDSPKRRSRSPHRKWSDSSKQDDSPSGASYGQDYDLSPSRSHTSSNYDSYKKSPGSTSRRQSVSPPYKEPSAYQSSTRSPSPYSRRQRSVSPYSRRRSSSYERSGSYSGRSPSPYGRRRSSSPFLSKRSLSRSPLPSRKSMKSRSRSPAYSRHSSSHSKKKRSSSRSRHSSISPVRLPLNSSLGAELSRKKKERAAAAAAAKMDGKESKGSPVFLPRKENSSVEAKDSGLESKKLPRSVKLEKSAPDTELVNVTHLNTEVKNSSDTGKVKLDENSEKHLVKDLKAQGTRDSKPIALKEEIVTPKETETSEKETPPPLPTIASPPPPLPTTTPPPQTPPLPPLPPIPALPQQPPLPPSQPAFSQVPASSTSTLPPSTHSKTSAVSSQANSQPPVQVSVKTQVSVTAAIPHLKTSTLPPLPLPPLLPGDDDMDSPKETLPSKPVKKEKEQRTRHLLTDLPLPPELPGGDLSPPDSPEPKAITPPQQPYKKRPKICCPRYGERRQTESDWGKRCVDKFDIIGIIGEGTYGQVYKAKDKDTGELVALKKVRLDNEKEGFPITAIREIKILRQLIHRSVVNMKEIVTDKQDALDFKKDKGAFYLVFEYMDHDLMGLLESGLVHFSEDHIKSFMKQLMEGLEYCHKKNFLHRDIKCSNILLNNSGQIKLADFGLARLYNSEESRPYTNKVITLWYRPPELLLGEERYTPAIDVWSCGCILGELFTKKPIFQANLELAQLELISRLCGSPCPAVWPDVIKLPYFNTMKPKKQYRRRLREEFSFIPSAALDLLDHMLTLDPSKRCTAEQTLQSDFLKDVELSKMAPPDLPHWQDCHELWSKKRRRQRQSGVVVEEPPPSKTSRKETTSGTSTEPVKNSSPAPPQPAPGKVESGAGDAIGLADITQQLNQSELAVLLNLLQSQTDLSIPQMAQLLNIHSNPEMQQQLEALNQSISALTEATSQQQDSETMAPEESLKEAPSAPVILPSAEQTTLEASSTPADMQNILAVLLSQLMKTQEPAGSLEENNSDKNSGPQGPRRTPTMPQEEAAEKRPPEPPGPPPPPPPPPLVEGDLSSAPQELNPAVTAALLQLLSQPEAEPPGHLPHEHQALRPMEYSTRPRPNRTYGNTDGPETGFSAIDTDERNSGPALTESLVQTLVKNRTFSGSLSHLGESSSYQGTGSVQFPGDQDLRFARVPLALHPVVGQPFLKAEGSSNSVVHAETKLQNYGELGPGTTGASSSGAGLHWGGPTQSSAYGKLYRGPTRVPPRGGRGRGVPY
- Sequence (O75909 whole entry partner): as the sequence (O75909 whole entry partner) above
- ASSAY_EXPLANATION: NanoBRET live-cell target engagement, CDK12-NanoLuc/Cyclin K in HEK-293
- Type: binding
- CONDITION_NOTES: CDK12/K; 10µM; read-out: Inhibition at 10µM (%) Replicate 2
Decision: inhibition at 10 µM >= 20% yields Condition met, all other cases yield Condition not met.

>>> category("COc1cc(F)ccc1-c1cc(Nc2cc(CS(C)(=N)=O)ccn2)ncc1F (stereo not drawn)")
"Condition not met"
>>> category("CCN1CCN(Cc2ccc(Nc3ncc(F)c(-c4cc(F)c5nc(C)n(C(C)C)c5c4)n3)nc2)CC1")
"Condition not met"
>>> category("CCCCOc1c(C(=O)c2c(F)cc(C)cc2F)c[nH]c2nncc1-2")
"Condition not met"
>>> category("Cc1ncc(-c2ccnc(Nc3ccc(S(C)(=O)=O)cc3)n2)n1C(C)C")
"Condition not met"
>>> category("CCN1CCN(Cc2ccc(NC(=O)Nc3ccc(Oc4cc(NC)ncn4)cc3)cc2C(F)(F)F)CC1")
"Condition met"
>>> category("O=C(NC1CCNCC1)c1[nH]ncc1NC(=O)c1c(Cl)cccc1Cl")
"Condition met"

This collection of values is drawn from paper PMC7265341.
